meta.source: patent US20140058068A1

Target: T1, GHRH receptor of human pituitary membrane homogenates (human, UniProt Q02643 23-423)
T1 construct: whole, on cells; Native receptor in pituitary membrane homogenates, not intact cells; also called hGH-RH receptor
T1 sequence (looked up): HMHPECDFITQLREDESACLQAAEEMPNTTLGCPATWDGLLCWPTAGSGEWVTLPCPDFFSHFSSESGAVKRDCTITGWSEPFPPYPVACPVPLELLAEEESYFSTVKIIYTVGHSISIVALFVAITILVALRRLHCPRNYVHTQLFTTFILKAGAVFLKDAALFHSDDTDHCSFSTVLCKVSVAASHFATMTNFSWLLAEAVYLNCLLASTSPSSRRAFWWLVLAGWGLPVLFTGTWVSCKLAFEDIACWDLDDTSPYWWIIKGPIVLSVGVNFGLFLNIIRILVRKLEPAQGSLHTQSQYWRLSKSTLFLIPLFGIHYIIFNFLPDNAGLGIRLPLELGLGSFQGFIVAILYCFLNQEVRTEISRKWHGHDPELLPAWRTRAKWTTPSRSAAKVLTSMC
Assay: radioligand competition, 125I-JV-1-42 (~0.2 nM) as competitor, human pituitary membrane homogenates
Square brackets hold non-standard residues; d marks the D form. Ends that are not written are not given here. * marks the point of attachment. NMeY = CN[C@@H](Cc1ccc(O)cc1)C(=O)O; Agmatine = N=C(N)NCCCCN*; Nle = CCCC[C@H](N)C(=O)O; Orn = NCCC[C@H](N)C(=O)O; Abu = CC[C@H](N)C(=O)O; Ava = NCCCCC(=O)O
property: Relative affinity (Binding potency) vs JI-38

// known answers, use as guide
[[record]]
binder = "[NMeY][dA]DAIFTTSYR[Orn]VL[Abu]QLSAR[Orn]LLQDI[Nle]DR-NHMe [[N-Me-Tyr^1, D-Ala^2, Thr^8, Orn^12, Abu^15, Orn^21, Nle^27, Asp^28]hGH-RH(1-29)NH-CH3]"
meas_value = "5.24 fold, JI-38 = 1"

[[record]]
binder = "[NMeY]ADAIFTQSYR[Orn]VL[Abu]QLSAR[Orn]LLQDI[Nle]D[Agmatine] (also called P20356) [[N-Me-Tyr^1, Gln^8, Orn^12, Abu^15, Orn^21, Nle^27, Asp^28, Agm^29]hGH-RH(1-29)]"
meas_value = "16.1 fold, JI-38 = 1"


Here is another binder to look at.
Query: Would you mind telling me what Relative affinity (Binding potency) vs JI-38 value was observed for [NMeY]ADAIFTQSYR[Orn]VL[Abu]QLSAR[Orn]LLQDI[Nle]DR[Ava]-NH2 (also called Peptide 22325) [[N-Me-Tyr^1, Gln^8, Orn^12, Abu^15, Orn^21, Nle^27, Asp^28, Apa^30]hGH-RH(1-30)NH2] ?
Response: 1.14 fold, JI-38 = 1
